# System: cultured human mast cells
# testMethodNotes: Degranulation inhibition test using cultured human mast cells (IgE cross-linking, β-Hexosaminidase release)
# Assay type: cell-based
# conditionNotes: Mast cell; cultured human mast cells, anti-hIgE stimulation, β-Hexosaminidase index, average; read-out: human degranulation ave. IC50
pIC50: −log10 of the molar value.
measuredQuantity: pIC50

INSERT INTO results (inputsmiles, measuredquantity, recordedmeasurement) VALUES
  ('CC(=O)N(CCC(=O)O)Cc1ncc(-c2cccc(Nc3cc(C)ccn3)n2)s1', 'pIC50', '< 6.00'),
  ('Cc1ccnc(Nc2cccc(-c3cnc([C@H](C)NC(=O)C4CC4)s3)n2)c1', 'pIC50', '6.00 to 7.00'),
  ('Cc1ccnc(Nc2cccc(-c3cnc([C@H]4CC[C@H](C(=O)N5CCNCC5)CC4)s3)n2)c1', 'pIC50', '< 6.00'),
  ('Cc1ccnc(Nc2cccc(-c3cnc(CCc4ccc(CO)cc4)s3)n2)c1', 'pIC50', '6.00 to 7.00'),
  ('Cc1ccnc(Nc2cccc(-c3cnc(C4CCN(CCO)CC4)s3)n2)c1', 'pIC50', '6.00 to 7.00');

Look up and report measured pIC50 for this entry: `Cc1ccnc(Nc2cccc(-c3cnc(CCCCCO)s3)n2)c1` 6.00 to 7.00

Tell me its pIC50 given `Cc1ccnc(Nc2cccc(-c3cnc([C@@H]4COC(=O)N4C)s3)n2)c1` as the entry. 6.00 to 7.00

State, in one line, measured pIC50 of `Cc1ccnc(Nc2cccc(-c3cnc(CNc4ccc(CC(=O)O)cc4)s3)n2)c1` < 6.00

* * *

# targetOrSystem: GST-Syk Full Protein (human) (Homo sapiens, UniProt P43405)
# testMethodNotes: Syk kinase inhibition test (HTRF method)
# Type: biochemical
# conditionNotes: HTRF, 100 μM ATP, 30 min room temperature, average; read-out: sykHTRF ave IC50
Counter-ions that a name gives are not always drawn.
measuredQuantity: IC50

INSERT INTO results (molecule, measuredquantity, recordedmeasurement) VALUES
  ('CCOC(=O)CC(C)(C)c1ncc(-c2cccc(Nc3cc(C)ccn3)n2)s1 [Compound A-144]', 'IC50', '> 1000 nM'),
  ('Cc1ccnc(Nc2cccc(-c3cnc(CC(C)(C)CCO)s3)n2)c1 [Compound A-158]', 'IC50', '< 100 nM'),
  ('Cc1ccnc(Nc2cccc(-c3cnc(CN4CCC(NS(C)(=O)=O)CC4)s3)n2)c1 [Compound A-236]', 'IC50', '100 to 1000 nM');

# return recorded IC50 for input Cc1ccnc(Nc2cccc(-c3cnc(N4CCC(CC(=O)O)CC4)s3)n2)c1 [Compound A-15, dihydrochloride] < 100 nM

Provide only the value of recorded IC50 for Cc1ccnc(Nc2cccc(-c3cnc(CCC4CCN(C(=O)c5ccncc5)CC4)s3)n2)c1 [Compound A-301] 100 to 1000 nM

Supply reported IC50 belonging to this molecule: CCOC(=O)c1nc([C@H](C)N)sc1-c1cccc(Nc2cc(C)ccn2)n1 [Compound A-101] > 1000 nM

Check the records and state IC50 for COC(=O)[C@H]1CC[C@H](c2ncc(-c3cccc(Nc4cc5ccccc5cn4)n3)s2)CC1 [Compound A-213] > 1000 nM

Could you please provide reported IC50 for Cc1ccnc(Nc2cccc(-c3cnc([C@H]4CC[C@H](CNC(=O)CO)CC4)s3)n2)c1 [Compound A-235] ? Thanks! < 100 nM
